All values here come from patent US20070265164A1.

- Tested on: HI02E21u_s_at, Lipoxygenase (EC 1.13.11.12)
- TEST DETAILS: GEP, barley DNA chip, probe set 1.2
- Assay type: in vivo
- Set-up: dose or concentration left out as unconfirmed
- TEST CONTEXT: Hordeum vulgare, topical; barley leaves 6 h after spray application; rates of Table 1 (S7 500); median induction factor vs control; read-out: Expression value, 1.2 HI02E21u_s_at

{"columns": ["COMPOUND", "TGT", "fold induction"],
 "data": [
  ["NC(=O)c1ccc(C(F)(F)F)nc1O [S6]", "HI02E21u_s_at, Lipoxygenase (EC 1.13.11.12)", 1],
  ["O=C(O)c1cc(Cl)cc(Cl)c1O [S10]", "HI02E21u_s_at, Lipoxygenase (EC 1.13.11.12)", 4.66],
  ["CCOC(=O)C(Oc1ccc(Cl)c2cccnc12)C(=O)OCC [S5]", "HI02E21u_s_at, Lipoxygenase (EC 1.13.11.12)", 1],
  ["COC(=O)C1=NN(c2ccc(Cl)cc2Cl)C(C)(C(=O)OC)C1 (stereo not shown) [S1, Mefenpyr-dimethyl]", "HI02E21u_s_at, Lipoxygenase (EC 1.13.11.12)", 1],
  ["O=C(O)C1=NN(c2ccc(Cl)cc2Cl)C(c2ccc(F)cc2)C1 (stereo not shown) [S2]", "HI02E21u_s_at, Lipoxygenase (EC 1.13.11.12)", 1],
  ["CCCCCC(C)OC(=O)COc1ccc(Cl)c2cccnc12 (stereo not shown) [S4, Cloquintocet-mexyl]", "HI02E21u_s_at, Lipoxygenase (EC 1.13.11.12)", 1],
  ["CSC(=O)c1cccc2nnsc12 [S8, Acibenzolar-S-methyl]", "HI02E21u_s_at, Lipoxygenase (EC 1.13.11.12)", 1]
]}

* * *

Overview of reported fold induction across a group of compounds:
- System: Contig12574_at, Putative lipoxygenase
- TEST DETAILS: GEP, barley DNA chip, probe set 1.11
- Assay type: in vivo
- Set-up: dose or concentration left out as unconfirmed
- TEST CONTEXT: Hordeum vulgare; barley leaves 6 h after spray application; rates of Table 1 (S7 500); median induction factor vs control; read-out: Expression value, 1.11 Contig12574_at

{"columns": ["COMPOUND", "fold induction"],
 "data": [
  ["O=C(O)c1cc(Cl)cc(Cl)c1O", 1],
  ["CSC(=O)c1cccc2nnsc12", 2.11],
  ["COC(=O)C1=NN(c2ccc(Cl)cc2Cl)C(C)(C(=O)OC)C1 (stereo not shown)", 0.5],
  ["CCCCCC(C)OC(=O)COc1ccc(Cl)c2cccnc12 (stereo not shown)", 1],
  ["CCOC(=O)C(Oc1ccc(Cl)c2cccnc12)C(=O)OCC", 1],
  ["O=C(O)C1=NN(c2ccc(Cl)cc2Cl)C(c2ccc(F)cc2)C1 (stereo not shown)", 1],
  ["NC(=O)c1ccc(C(F)(F)F)nc1O", 1]
]}

* * *

- Tested on: Contig5146_at, Probable 12-oxophytodienoate reductase (EC 1.3.1.42)
- TEST DETAILS: GEP, barley DNA chip, probe set 1.4
- Assay type: in vivo
- Set-up: dose or concentration left out as unconfirmed
- TEST CONTEXT: Hordeum vulgare, topical; barley leaves 6 h after spray application; rates of Table 1 (S7 500); median induction factor vs control; read-out: Expression value, 1.4 Contig5146_at

{"columns": ["COMPOUND", "fold induction"],
 "data": [
  ["COC(=O)C1=NN(c2ccc(Cl)cc2Cl)C(C)(C(=O)OC)C1 (stereo not shown)", 7.73],
  ["O=C(O)C1=NN(c2ccc(Cl)cc2Cl)C(c2ccc(F)cc2)C1 (stereo not shown)", 4.47],
  ["NC(=O)c1ccc(C(F)(F)F)nc1O", 6.77],
  ["CCOC(=O)C(Oc1ccc(Cl)c2cccnc12)C(=O)OCC", 5.35],
  ["CSC(=O)c1cccc2nnsc12", 1],
  ["CCCCCC(C)OC(=O)COc1ccc(Cl)c2cccnc12 (stereo not shown)", 4.72],
  ["O=C(O)c1cc(Cl)cc(Cl)c1O", 1]
]}
